molecular target: FKBP12 (Homo sapiens)
Sequence (P62942 whole entry, species assumed): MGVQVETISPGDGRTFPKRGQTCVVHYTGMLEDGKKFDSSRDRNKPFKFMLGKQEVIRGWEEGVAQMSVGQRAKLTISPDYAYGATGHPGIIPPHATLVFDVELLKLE
pKi: −log10 of the molar value.
REPORTED_PROPERTY: pKi

a. O=C(OCCCc1cccnc1)[C@@H]1CCCN1S(=O)(=O)Cc1ccccc1 [Compound 4]
b. O=C(OC(CCc1ccccc1)CCc1ccccc1)C1CCCCN1S(=O)(=O)Cc1ccccc1 (stereo not drawn) [Compound 2]
c. O=C(OCCCCc1ccccc1)C1CCCCN1S(=O)(=O)Cc1ccccc1 (racemic) [Compound 1]
Req: With regard to pKi, arrange the entries in ascending order, please. Would you mind listing the labels in the order asked for?
Resp: a, c, b
